test: Mouse thioglycollate-induced peritonitis model: CVC plasma levels (LC/MS/MS); assay type: in vivo; conditions: mouse, plasma; mice, Day 6, Group 4, 20 mg/kg/day (BID) oral, ~14 hours postdose (actual 15 hours)
Measured Endpoint: concentration at 15 h (ng/mL)

INSERT INTO assay_data (smiles_record, measured_endpoint, observed) VALUES
  ('CCCCOCCOc1ccc(-c2ccc3c(c2)/C=C(/C(=O)Nc2ccc([S@@+]([O-])Cc4cncn4CCC)cc2)CCCN3CC(C)C)cc1', 'concentration at 15 h', 81.2);

====

assay: Mouse thioglycollate-induced peritonitis model: CVC plasma levels (LC/MS/MS); assay type: in vivo; details: mouse, plasma; mice, Day 6, Group 5, 100 mg/kg/day (BID) oral, ~14 hours postdose (actual 15.5 hours)
Measured Endpoint: concentration at 15.5 h (µg/mL)

INSERT INTO results (molecule, unit_abbreviation, observed) VALUES
  ('CCCCOCCOc1ccc(-c2ccc3c(c2)/C=C(/C(=O)Nc2ccc([S@@+]([O-])Cc4cncn4CCC)cc2)CCCN3CC(C)C)cc1 [CVC]', 'µg/mL', 0.551);

====

assay: Mouse thioglycollate-induced peritonitis model: CVC plasma levels (LC/MS/MS); type: in vivo; conditions: mouse, plasma; mice, Day 6, Group 6, 20 mg/kg/day (QD) oral, ~26 hours postdose (actual 28 hours)
Measured Endpoint: concentration at 28 h (ng/mL)

INSERT INTO assay_data (smiles_record, observed) VALUES
  ('CCCCOCCOc1ccc(-c2ccc3c(c2)/C=C(/C(=O)Nc2ccc([S@@+]([O-])Cc4cncn4CCC)cc2)CCCN3CC(C)C)cc1', 25.7);
